Target: hα2A receptor (Homo sapiens, UniProt P08913)
Construct: expressed in transfected cells
Sequence (P08913 1-465): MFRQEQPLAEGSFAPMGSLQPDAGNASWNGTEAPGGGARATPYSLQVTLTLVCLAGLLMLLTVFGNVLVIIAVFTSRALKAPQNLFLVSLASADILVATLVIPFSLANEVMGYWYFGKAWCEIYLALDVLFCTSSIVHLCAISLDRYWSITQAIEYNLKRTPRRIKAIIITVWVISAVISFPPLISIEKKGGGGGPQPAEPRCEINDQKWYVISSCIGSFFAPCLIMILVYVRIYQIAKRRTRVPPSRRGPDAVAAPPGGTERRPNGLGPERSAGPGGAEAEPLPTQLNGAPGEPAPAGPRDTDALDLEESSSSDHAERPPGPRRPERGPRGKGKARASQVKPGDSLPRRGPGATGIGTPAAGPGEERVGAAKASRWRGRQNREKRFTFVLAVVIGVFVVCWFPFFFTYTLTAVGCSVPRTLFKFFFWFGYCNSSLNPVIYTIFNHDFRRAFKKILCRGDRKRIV
Test: Radioligand binding experiment for hα2A receptor ([3H]-raulwolscine)
Conditions: membranes of CHO cells expressing human α2A receptor; [3H]raulwolscine 1 nM; read-out: hα2A pIC50 (converted)
Procedure: The interaction of the compounds of Formula (I) with hα2-receptors and h5-HT-transporters was assessed in in vitro radioligand binding experiments. […] When equilibrium of binding is reached, the receptor bound radioactivity is separated from the non-bound radioactivity, and the receptor- or transporter-bound activity is counted. The interaction of the test compounds with the receptor is assessed in competition binding experiments. […]
PROPERTY NAME: IC50 (nM)

* COc1cc2c(cc1OC)C1=NOC(CN3CCN(C/C=C(\C)c4ccc(F)cc4)CC3)C1CO2 (single isomer, unassigned) | 12.6

[A] COCCOCOc1cc2c(cc1OC)C1=NOC(CN3CCN(C/C(C)=C/c4ccccc4)CC3)C1CO2 (single isomer, unassigned)
[B] COc1cc2c(cc1OC)C1=NOC(CN3CCN(Cc4ccc5ccccc5n4)CC3)C1CO2 (stereo not drawn)
[C] COc1cc2c(cc1OC)C1=NOC(CN3CCN(CCCc4ccccc4)CC3)C1CO2 (stereo not drawn)
Please produce an ascending ranking of these molecules based on IC50. Hello, could you send the labels back in the order asked? Thank you.
A, C, B

[P] COc1cc2c(cc1OCCN(C)C)OCC1C2=NOC1CN1CCN(C/C(C)=C/c2ccccc2)CC1 (single isomer, unassigned)
[Q] c1ccc2cc(CN3CCN(CC4ON=C5c6cc7c(cc6OCC54)OCO7)CC3)ccc2c1 (stereo not drawn)
Between P and Q , which one has the lower reported IC50 value? Give the label under which the chosen entry appears.
Q

[I] COc1cc2c(cc1OC)C1=NOC(CN3CCN(CCC(O)c4ccccc4)CC3)C1CO2 (stereo not drawn)
[II] CSc1cc2c(cc1F)C1=NOC(CN3CCN(CC(C)=Cc4ccccc4)CC3)C1CO2 (stereo not drawn)
Between I and II , which one has the lower reported IC50 value? Give the label under which the chosen entry appears.
II
(II: 3.8 nM, I: 214 nM)
